These data points were gathered from patent US20050215551A1.

molecular target: μ-opiate (Rattus norvegicus); assay: Receptor binding μ-opiate; details: radioligand [3H]-DAMGO, read-out: Ki(nM) Compound 1
Sequence (P33535 whole entry): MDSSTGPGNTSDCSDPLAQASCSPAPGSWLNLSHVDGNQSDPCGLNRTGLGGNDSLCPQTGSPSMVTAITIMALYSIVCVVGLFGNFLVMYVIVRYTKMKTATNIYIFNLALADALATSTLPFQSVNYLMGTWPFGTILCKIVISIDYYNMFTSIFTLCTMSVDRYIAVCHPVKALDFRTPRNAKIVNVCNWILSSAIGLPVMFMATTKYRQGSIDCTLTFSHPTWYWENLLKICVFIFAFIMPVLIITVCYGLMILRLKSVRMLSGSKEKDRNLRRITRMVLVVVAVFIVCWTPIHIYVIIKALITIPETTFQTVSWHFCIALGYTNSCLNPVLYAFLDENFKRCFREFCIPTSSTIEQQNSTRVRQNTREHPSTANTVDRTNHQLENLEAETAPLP
quantity.name: Ki

Short answer for Nc1cc2cccc(N3CCNCC3)c2oc1=O : Ki was > 1000 nM

----------
target: 5-HT1B (Rattus norvegicus, UniProt P28564); assay: Receptor binding 5-HT1B; details: radioligand [125I]-cyanopindolol, read-out: Ki(nM) Compound 1
Sequence (P28564 whole entry): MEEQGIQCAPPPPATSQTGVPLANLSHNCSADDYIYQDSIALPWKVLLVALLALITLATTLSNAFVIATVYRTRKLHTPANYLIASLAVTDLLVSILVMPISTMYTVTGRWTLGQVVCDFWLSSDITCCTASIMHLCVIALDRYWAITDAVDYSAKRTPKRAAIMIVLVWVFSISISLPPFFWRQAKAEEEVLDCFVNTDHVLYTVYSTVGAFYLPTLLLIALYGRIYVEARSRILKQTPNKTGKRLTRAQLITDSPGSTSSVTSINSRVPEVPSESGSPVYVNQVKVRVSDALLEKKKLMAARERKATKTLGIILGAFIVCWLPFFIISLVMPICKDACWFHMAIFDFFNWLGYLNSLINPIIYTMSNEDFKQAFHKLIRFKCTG
quantity.name: Ki (nM)
Report only the number, with the unit nM understood.

Entry Nc1cc2cccc(N3CCNCC3)c2oc1=O [Compound 1] ; Ki = 2

----------
Biological target: Dopaminereuptake (Homo sapiens)
Sequence (Q01959 whole entry): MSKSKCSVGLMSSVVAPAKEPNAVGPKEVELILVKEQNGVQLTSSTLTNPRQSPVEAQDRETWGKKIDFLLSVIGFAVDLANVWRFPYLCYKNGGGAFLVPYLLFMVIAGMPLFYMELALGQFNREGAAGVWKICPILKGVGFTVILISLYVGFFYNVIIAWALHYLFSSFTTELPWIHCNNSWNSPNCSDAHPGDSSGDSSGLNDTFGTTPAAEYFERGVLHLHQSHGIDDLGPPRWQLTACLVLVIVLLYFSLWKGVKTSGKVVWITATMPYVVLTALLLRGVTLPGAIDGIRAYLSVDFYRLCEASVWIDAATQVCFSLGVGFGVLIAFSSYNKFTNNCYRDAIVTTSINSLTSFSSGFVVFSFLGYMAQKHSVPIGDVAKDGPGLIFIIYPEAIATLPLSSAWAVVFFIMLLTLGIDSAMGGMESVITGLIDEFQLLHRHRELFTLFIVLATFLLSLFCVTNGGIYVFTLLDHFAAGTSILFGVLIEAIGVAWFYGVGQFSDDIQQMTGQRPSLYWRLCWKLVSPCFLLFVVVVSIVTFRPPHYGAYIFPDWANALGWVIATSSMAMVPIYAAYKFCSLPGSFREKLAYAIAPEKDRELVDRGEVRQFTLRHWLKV
Assay: Binding Dopamine reuptake
Settings: radioligand [3H]-GBR 12935, read-out: Ki(nM) Compound 1
Experimental: Receptor binding data were obtained by CEREP (128, rue Danton, 92500 Rueil-Malmaison, France) or at Solvay Pharmaceuticals B.V., using well documented standard procedures. Affinity for 5-HT1A receptors for instance, was determined by testing the ability of the compounds of the invention to displace [^3H]-2-(di-n-propylamino)-8-hydroxytetralin ([^3H]-8-OH-DPAT) from its specific binding sites in rat frontal cortex homogenates. […]
quantity.name: Ki

response.value for Nc1cc2cccc(N3CCNCC3)c2oc1=O (field: Ki) = > 1000 nM
